# SYSTEM: T1, full-length human IL-36R on cells (human, UniProt Q9HB29 20-575)
# T1 sequence (looked up): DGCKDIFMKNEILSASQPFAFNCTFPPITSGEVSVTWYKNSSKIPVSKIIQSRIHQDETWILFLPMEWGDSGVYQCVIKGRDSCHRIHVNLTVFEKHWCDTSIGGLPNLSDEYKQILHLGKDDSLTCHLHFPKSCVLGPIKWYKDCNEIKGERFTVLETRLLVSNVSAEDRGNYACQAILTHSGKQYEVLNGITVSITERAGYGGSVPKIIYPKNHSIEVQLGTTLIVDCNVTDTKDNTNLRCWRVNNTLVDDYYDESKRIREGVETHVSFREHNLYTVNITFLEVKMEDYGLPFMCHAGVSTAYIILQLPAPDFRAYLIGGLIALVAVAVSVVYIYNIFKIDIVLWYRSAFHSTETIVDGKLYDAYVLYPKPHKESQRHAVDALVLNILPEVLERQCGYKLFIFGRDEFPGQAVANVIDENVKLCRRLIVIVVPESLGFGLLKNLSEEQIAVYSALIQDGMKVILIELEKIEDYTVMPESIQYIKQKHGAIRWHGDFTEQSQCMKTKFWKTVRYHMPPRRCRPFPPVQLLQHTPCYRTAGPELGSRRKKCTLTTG
# TEST SUMMARY: cell-based or functional assay
ENDPOINT LABEL: Max Inhibition (%), NFκB-luciferase, 20 pM hIL-36α
In your response, the unit should come after the numeric value.

**Q:** Consider the binder H4H14708P2 (antibody, human IgG4 S228P, kappa, V domains shown) VH: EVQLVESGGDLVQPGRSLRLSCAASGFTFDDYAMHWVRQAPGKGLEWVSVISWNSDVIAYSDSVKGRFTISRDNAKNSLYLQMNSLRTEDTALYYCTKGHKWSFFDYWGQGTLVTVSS VL: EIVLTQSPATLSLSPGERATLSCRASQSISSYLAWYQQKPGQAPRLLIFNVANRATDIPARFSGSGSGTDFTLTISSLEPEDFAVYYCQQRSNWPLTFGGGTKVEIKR . State its measured Max Inhibition (%), NFκB-luciferase, 20 pM hIL-36α.
**A:** 101%
